The origin of these recorded values is patent US20200385371A1.

- Test system: MV4-11 cells
- EXPERIMENT_NOTES: Cell proliferation assay (ATPlite)
- Type: cell-based
- RECORDED_CONDITIONS: Homo sapiens, 120 h; MV4-11 cells, five days; read-out: GI MV411 EC50
MEASUREMENT_TYPE: EC50 (µM)
Numbers only, in µM.

EC50 measured on C[C@@H]1CN(c2cc(F)c(C3=CCN(C(=O)OC4CC(F)(F)C4)C3)c(F)c2NC(=O)c2c[nH]c(=O)cc2C(F)(F)F)C[C@H](C)N1C [Example 136] = 0.042

EC50 measured on C[C@H]1CN(c2cc(F)c(-c3ccc(OC4CCOCC4)nc3)c(F)c2NC(=O)c2c[nH]c(=O)cc2C(F)(F)F)CCN1C [Example 186] = 0.0399

EC50 measured on C[C@@H]1CN(c2nccc(-c3c(F)cc(N4CCN(C)[C@@H](C)C4)c(NC(=O)c4c[nH]c(=O)cc4C(F)F)c3F)n2)C[C@H](C)O1 [Example 59] = 0.0566

EC50 measured on C[C@@H]1CN(c2cc(F)c(-c3cnc(N4CCOCC4)nc3)c(F)c2NC(=O)c2cn(C)c(=O)cc2C(F)F)C[C@H](C)N1C [Example 40] = 0.286

EC50 measured on C[C@H]1CN(c2cc(F)c(-c3ccc4c(c3)OCCO4)c(F)c2NC(=O)c2c[nH]c(=O)cc2C(F)(F)F)CCN1C [Example 185] = 0.17

EC50 measured on C[C@@H]1CN(c2cc(F)c(-c3cnc(N4CCOCC4)nc3)c(F)c2NC(=O)c2c[nH]c(=O)cc2C(F)F)C[C@H](C)N1C [Example 41] = 0.0488

Hi, could you look up EC50 for each item in my list?
1. C[C@@H]1CN(c2nccc(-c3c(F)cc(N4C[C@@H](C)N(C)[C@@H](C)C4)c(NC(=O)c4c[nH]c(=O)cc4C(F)F)c3F)n2)C[C@H](C)O1 [Example 78]
2. C[C@H]1CN(c2cc(F)c(-c3cnc(N4CCNCC4)nc3)c(F)c2NC(=O)c2ccc(F)cc2C(F)(F)F)CCN1C [Example 173]
3. C[C@@H]1CN(c2cc(F)c(-c3cnc(N4CCO[C@@H](C)C4)nc3)c(F)c2NC(=O)c2c[nH]c(=O)cc2C(F)(F)F)C[C@H](C)N1C [Example 101]
4. C[C@@H]1CN(c2cc(F)c(-c3ccc(C(N)=O)c(F)c3F)c(F)c2NC(=O)c2c[nH]c(=O)cc2C(F)(F)F)C[C@H](C)N1C [Example 26]
5. C[C@H]1CN(c2cc(F)c(C3=CCCN(c4ncc(C#N)s4)C3)c(F)c2NC(=O)c2c[nH]c(=O)cc2C(F)(F)F)CCN1C [Example 100]
6. C[C@@H]1CN(c2ccc(-c3c(F)cc(N4C[C@@H](C)N(C)[C@@H](C)C4)c(NC(=O)c4c[nH]c(=O)cc4C(F)(F)F)c3F)cn2)CCO1 [Example 168]

Result:
[0.0641, 0.0244, 0.0118, 0.316, 0.181, 0.0368]
